tgt: T1, Epstein-Barr virus BHRF1 a.a. 1-161 with C-terminal avi-6his tag (Epstein-Barr virus)
T1 construct: also called EBV BHRF1; BHRF1-biotin
T1 chain: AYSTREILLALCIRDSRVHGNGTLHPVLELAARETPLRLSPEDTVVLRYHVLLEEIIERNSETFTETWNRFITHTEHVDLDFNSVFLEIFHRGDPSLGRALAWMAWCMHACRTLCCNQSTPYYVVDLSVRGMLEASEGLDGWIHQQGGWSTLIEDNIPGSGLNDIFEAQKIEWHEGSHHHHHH
method.notes: yeast display library, FACS sort at 400 nM BHRF1, deep sequencing
measure: Log2 enrichment ratio

INSERT INTO measurements (binder, result) VALUES
  ('Index 42 (designed binder) GQQEEQFIEDFKKEVLRAADDAKDDMEKRAEEFLKKDGDDNEKKRKILKWIADALEAIGDLFNAAQEAKRRAELYFKLGLLKKERKEEAEEEAEKAKEEASKKLHKAAREARIKMEKG', '-3.15 log2'),
  ('Index 64 (designed binder) GLSGDDAEDFARQEIEKRAREAEEKARKLIWLASKYDAKREEALKFHLRWIAFALMMIGDAFNAEEIAREMLEIARELGLTREEEAKEKLEKIRKKETEASKKMAERGRRLDNQANNG', '-1.68 log2');

The reported measurements were obtained from patent US20160376333A1.
